Listed below: pIC50 values for each entry.
measured-target: PI3-kinase p110-delta/p85-alpha (Homo sapiens, UniProt O00329)
Sequence (P27986 whole entry): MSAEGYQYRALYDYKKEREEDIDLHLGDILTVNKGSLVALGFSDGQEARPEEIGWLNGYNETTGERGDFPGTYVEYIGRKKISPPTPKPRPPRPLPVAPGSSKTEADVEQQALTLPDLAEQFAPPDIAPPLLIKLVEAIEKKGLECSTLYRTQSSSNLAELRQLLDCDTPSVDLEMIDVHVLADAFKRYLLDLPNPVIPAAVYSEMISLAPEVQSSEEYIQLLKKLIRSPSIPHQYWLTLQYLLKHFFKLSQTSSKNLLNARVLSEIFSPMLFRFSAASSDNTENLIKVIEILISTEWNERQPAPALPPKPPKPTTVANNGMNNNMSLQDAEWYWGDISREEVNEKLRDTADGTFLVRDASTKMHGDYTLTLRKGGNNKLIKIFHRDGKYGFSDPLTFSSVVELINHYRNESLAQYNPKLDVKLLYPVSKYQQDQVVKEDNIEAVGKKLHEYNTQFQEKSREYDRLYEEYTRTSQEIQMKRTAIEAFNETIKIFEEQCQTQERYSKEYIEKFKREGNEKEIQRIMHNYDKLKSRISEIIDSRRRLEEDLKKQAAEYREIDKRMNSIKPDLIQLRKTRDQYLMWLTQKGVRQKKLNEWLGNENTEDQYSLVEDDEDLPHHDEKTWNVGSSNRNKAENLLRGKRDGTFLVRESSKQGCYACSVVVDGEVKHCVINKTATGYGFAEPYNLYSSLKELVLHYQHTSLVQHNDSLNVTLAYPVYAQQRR
Sequence (O00329 whole entry): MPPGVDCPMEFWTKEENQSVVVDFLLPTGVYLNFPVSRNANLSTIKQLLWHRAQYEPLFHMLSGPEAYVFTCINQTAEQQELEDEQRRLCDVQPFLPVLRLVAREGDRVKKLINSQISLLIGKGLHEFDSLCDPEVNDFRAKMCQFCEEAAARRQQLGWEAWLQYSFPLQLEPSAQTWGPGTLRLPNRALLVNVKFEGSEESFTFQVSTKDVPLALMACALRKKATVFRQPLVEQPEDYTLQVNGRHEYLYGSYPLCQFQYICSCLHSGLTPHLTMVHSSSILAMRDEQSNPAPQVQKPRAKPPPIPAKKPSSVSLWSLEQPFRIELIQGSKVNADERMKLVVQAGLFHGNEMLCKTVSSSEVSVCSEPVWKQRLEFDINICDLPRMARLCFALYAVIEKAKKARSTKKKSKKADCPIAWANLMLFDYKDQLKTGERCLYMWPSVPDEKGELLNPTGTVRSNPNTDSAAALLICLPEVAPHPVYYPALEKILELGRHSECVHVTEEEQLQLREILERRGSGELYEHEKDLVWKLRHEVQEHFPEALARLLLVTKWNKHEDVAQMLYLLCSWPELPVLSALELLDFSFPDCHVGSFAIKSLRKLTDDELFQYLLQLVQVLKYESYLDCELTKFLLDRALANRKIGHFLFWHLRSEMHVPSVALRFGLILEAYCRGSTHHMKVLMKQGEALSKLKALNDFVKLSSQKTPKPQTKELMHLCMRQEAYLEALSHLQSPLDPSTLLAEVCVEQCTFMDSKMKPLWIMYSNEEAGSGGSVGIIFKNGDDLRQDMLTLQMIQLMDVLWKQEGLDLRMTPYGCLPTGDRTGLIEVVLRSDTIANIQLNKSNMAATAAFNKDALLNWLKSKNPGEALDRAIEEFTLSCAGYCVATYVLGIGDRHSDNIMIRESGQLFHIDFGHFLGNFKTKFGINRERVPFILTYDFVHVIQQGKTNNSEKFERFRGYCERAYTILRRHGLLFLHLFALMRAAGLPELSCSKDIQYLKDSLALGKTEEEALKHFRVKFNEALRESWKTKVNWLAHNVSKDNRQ
measurement-notes: Inhibition of N-terminal His6-tagged recombinant full length human p110delta/untagged recombinant full length human p85alpha expressed in baculovirus infected Sf21 insect cells after 20 mins by alphascreen assay
pIC50: −log10 of the molar value.

compound: COc1c(C(C)Nc2ncnc(N)c2C#N)cc(Cl)c(C)c1-c1cccnc1 (configuration not stated)
reading: > 7.70

Now for the compound whose pIC50 we want.
Q: For the record CC(=O)N1CC(N2CCOc3c(C(C)n4nc(C)c5c(N)ncnc54)cc(Cl)c(C)c3C2)C1 (configuration not stated) , what value of pIC50 is listed for PI3-kinase p110-delta/p85-alpha (Homo sapiens, UniProt O00329)?
Ans: > 7.00

----------
Test system: Jurkat
measurement-notes: Cytotoxicity against human Jurkat cells
Format: functional, cell-based
assay-endpoint: IC50 (nM)
Value expressed in nM; do not type the unit.

Q: Using the record for Cc1ccc2c(c1)C(=O)N(C)c1cnc(Nc3cccc(S(=O)(=O)N4CCC(O)CC4)c3)nc1N2C , report its IC50.
Ans: 1400

----------
measured-target: Phosphatidylinositol 4,5-bisphosphate 3-kinase catalytic subunit delta isoform (Homo sapiens)
Sequence (O00329 whole entry, canonical isoform): as the sequence (O00329 whole entry) above
measurement-notes: Inhibition of PI3Kdelta in human Neutrophil cells
Assay type: cell-based
assay-endpoint: IC50 (nM)
Value expressed in nM; do not type the unit.

Q: Using the record for [O-][n+]1cccc(-c2nc3c(Cl)cccc3cc2[C@@H](Nc2ncnc3cccnc23)C(F)(F)F)c1 [SELETALISIB] , report its IC50.
Ans: 12

----------
measurement-notes: Cytotoxicity against human basophil cells after 24 hrs by MTT assay
Format: cell-based
assay-endpoint: pIC50
In plain terms, pIC50 is the concentration in mol/L turned into minus its base-10 logarithm.

Q: Using the record for C[C@H](Nc1ncnc2[nH]cnc12)c1nc2ccc(F)cc2c(=O)n1-c1ccccc1 [ACALISIB] , report its pIC50.
Ans: 7.72

----------
measured-target: Phosphatidylinositol 4,5-bisphosphate 3-kinase catalytic subunit gamma isoform (Homo sapiens, UniProt P48736)
Sequence (P48736 whole entry, canonical isoform): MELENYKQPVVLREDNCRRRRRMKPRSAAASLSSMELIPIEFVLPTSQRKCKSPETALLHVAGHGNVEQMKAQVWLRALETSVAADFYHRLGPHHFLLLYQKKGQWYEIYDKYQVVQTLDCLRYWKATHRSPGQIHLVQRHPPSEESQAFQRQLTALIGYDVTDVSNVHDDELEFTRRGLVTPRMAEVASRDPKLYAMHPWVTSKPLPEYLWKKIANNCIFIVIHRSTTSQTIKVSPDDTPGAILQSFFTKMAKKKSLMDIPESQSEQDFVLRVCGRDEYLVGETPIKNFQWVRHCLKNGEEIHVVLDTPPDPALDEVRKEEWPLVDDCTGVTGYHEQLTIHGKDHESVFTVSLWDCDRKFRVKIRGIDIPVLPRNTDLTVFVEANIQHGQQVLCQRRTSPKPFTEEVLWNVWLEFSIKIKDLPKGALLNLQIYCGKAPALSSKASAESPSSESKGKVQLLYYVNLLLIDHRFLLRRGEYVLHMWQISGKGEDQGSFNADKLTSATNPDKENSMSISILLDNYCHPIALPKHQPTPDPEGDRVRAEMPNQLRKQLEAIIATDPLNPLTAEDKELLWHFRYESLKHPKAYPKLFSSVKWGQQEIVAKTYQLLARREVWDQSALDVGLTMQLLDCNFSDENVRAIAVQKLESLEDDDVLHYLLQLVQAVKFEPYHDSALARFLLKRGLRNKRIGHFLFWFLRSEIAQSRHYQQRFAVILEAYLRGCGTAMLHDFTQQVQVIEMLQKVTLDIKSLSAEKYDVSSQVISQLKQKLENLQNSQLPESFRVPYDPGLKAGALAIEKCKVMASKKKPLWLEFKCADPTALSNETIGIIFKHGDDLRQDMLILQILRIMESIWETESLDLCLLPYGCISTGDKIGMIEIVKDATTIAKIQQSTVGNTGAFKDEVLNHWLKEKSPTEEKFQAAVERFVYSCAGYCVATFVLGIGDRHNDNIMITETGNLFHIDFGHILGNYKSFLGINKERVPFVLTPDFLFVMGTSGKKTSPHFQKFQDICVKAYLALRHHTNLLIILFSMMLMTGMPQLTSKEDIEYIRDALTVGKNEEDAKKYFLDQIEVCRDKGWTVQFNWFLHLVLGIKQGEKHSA
measurement-notes: Inhibition of recombinant N-terminal His-tagged full length human PI3Kgamma expressed in baculovirus expression system after 80 mins by fluorescence polarization assay
assay-endpoint: IC50
Provide a numeric answer, followed by its unit.

Q: Using the record for C[C@H]1CN(c2nc(N)nc3c2S(=O)(=O)CC3)[C@@H]1c1nn2ccc(Cl)c2c(=O)n1-c1ccccc1 , report its IC50.
Ans: 3 nM

----------
measured-target: Phosphatidylinositol 4,5-bisphosphate 3-kinase catalytic subunit gamma isoform (Homo sapiens, UniProt P48736)
measurement-notes: Inhibition of PI3Kgamma (unknown origin) using PIP2 as substrate preincubated for 10 mins followed by ATP addition measured after 30 mins by HTRF assay
pIC50: −log10 of the molar value.
assay-endpoint: pIC50

Q: Using the record for CC(C)Oc1ccc(-c2nn([C@@H](C)c3oc4ccc(F)cc4c(=O)c3-c3cccc(F)c3)c3ncnc(N)c23)cc1F , report its pIC50.
Ans: < 6.92

----------
measured-target: DNA-dependent protein kinase catalytic subunit (Homo sapiens, UniProt P78527)
measurement-notes: Inhibition of DNAPK (unknown origin)
assay-endpoint: pIC50
In plain terms, pIC50 is the concentration in mol/L turned into minus its base-10 logarithm.

Q: Using the record for C[C@H](NC(=O)c1c(N)nn2cccnc12)c1cc2cccc(C#Cc3cnn(C)c3)c2c(=O)n1-c1ccccc1 [EGANELISIB] , report its pIC50.
Ans: 5.32
